test: Inhibition of NS5A in HCV genotype 1a H77 infected in human HuH7 replicon cells assessed as reduction in viral replication after 3 days by luciferase reporter gene assay
pEC50: −log10 of the molar value.
assay-readout: pEC50

• COC(=O)N[C@H](C(=O)N1CCC[C@H]1c1ncc(-c2cc3c4c(c2)OCc2cc(-c5cnc([C@@H]6CCCN6C(=O)[C@@H](NC(=O)OC)C6CCOCC6)[nH]5)cc(c2-4)OC3)[nH]1)C(C)C = 9.73
• COC[C@H]1C[C@@H](c2nc3ccc4cc5c(cc4c3[nH]2)OCc2cc(-c3cnc([C@@H]4CCCN4C(=O)[C@@H](NC(=O)OC)C(C)C)[nH]3)ccc2-5)N(C(=O)[C@@H](NC(=O)OC)C(C)C)C1 = 10.68
• COC(=O)N[C@H](C(=O)N1[C@@H](C)CC[C@H]1c1ncc(-c2ccc3c(c2)COc2cc4c(ccc5nc([C@@H]6CC[C@H](C)N6C(=O)[C@@H](NC(=O)OC)C(C)C)[nH]c54)cc2-3)[nH]1)C(C)C = 11.10
• COC[C@H]1C[C@@H](c2nc(-c3ccc4c(c3)COc3cc5c(ccc6nc([C@@H]7CC[C@H](C)N7C(=O)[C@@H](NC(=O)OC)C(C)C)[nH]c65)cc3-4)c[nH]2)N(C(=O)[C@H](NC(=O)OC)c2ccccc2)C1 = 10.85
• COC(=O)N[C@@H](C(=O)N1[C@@H](C)CC[C@H]1c1ncc(-c2cc3c4c(c2)OCc2cc(-c5cnc([C@@H]6CC[C@H](C)N6C(=O)[C@H](NC(=O)OC)c6ccccc6)[nH]5)cc(c2-4)OC3)[nH]1)c1ccccc1 = 9.82
• COC(=O)N[C@@H](C(=O)N1CCC[C@H]1c1ncc(-c2cc3c4c(c2)OCc2cc(-c5cnc([C@@H]6CCCN6C(=O)[C@H](NC(=O)OC)c6ccccc6)[nH]5)cc(c2-4)OC3)[nH]1)c1ccccc1 = 10.03
• COC[C@H]1C[C@@H](c2ncc(-c3ccc4c(c3)COc3cc5c(ccc6nc([C@@H]7C[C@@H]8C[C@H]8N7C(=O)[C@@H](NC(=O)OC)C(C)C)[nH]c65)cc3-4)[nH]2)N(C(=O)[C@H](NC(=O)OC)c2ccccc2)C1 = 10.89
• COC(=O)N[C@H](C(=O)N1CCC[C@H]1c1ncc(-c2cc3c4c(c2)OCc2cc(-c5cnc([C@@H]6CCCN6C(=O)[C@H](NC(=O)OC)c6ccccc6)[nH]5)cc(c2-4)OC3)[nH]1)C1CCOCC1 = 9.49
